test: Pharmacokinetic study, intravenous administration of aqueous solution of Working Example 1; format: in vivo, Sprague-Daweley IGS rats; settings: Sprague-Dawley IGS, rat, blood, iv; female rats, i.v., aqueous solution of Working Example 1, dose of Compound (I) 3 mg/kg (Group 3), average of three; read-out: AUC0-24
Observable: AUC(0-t) (ng·h/mL)
One number for each entry, in ng·h/mL.

INPUT: Quick check: AUC(0-t) of O=C(Nc1cc(C(F)(F)F)cc(C(F)(F)F)c1)c1cc(Cl)ccc1O [Compound (I)] ?
OUTPUT: 981

Reference source for all entries: patent US9974860B2
